- Protocol notes: LTEA_HepaRG_LDH_cytotoxicity: Cytotoxicity Assessment in the Life Technologies and Expression Analysis (LTEA) Assay (AID 2283563)
The source made the active and inactive calls. The calls were made as follows: active = hit-call score of the fitted dose curve at least 0.9, where 1 is the maximum; inconclusive = response in the unintended direction; inactive = score below 0.9.
Outcomes you can answer with include only these: yes (1) for active, no (0) for inactive

Ask: In this assay, the call recorded for C#CCN1C(=O)COc2cc(F)c(N3C(=O)C4=C(CCCC4)C3=O)cc21 was what?
Reply: no (0)

Ask: In this assay, the call recorded for C[C@H]1[C@H](c2ccc(Cl)cc2)SC(=O)N1C(=O)NC1CCCCC1 was what?
Reply: no (0)

Ask: In this assay, the call recorded for CC1(c2ccc(Oc3ccccc3)cc2)OC(=O)N(Nc2ccccc2)C1=O (stereo not given) was what?
Reply: yes (1)

Ask: In this assay, the call recorded for CCOC1Oc2ccc(OS(C)(=O)=O)cc2C1(C)C (stereo not given) was what?
Reply: yes (1)

Ask: In this assay, the call recorded for O=C(O)C(F)(F)C(F)(F)C(F)(F)C(F)(F)C(F)(F)C(F)(F)C(F)(F)F was what?
Reply: no (0)

Data origin: PubChem BioAssay (EPA / NIEHS)
